measured.on: PPARγ (Homo sapiens, UniProt P37231)
Construct: Following the challenge of the preadipocytes, cells may be lysed with lysis buffer; endogenous in cells; host or cells: preadipocytes
Sequence (P37231 whole entry): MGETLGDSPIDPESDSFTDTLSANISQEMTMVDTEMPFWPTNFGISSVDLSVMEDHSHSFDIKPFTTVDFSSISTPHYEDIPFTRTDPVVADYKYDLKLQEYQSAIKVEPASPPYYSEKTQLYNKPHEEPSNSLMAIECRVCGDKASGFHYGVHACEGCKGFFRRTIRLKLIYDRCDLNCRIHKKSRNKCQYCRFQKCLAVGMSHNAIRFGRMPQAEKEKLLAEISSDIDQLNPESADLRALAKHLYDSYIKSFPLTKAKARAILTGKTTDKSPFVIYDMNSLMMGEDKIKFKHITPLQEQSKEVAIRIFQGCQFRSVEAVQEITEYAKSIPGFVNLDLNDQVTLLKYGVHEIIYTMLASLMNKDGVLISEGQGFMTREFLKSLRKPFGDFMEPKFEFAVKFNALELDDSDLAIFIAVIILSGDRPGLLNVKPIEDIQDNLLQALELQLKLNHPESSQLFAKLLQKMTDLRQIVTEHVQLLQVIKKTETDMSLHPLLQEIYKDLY
protocol.notes: aP2 Assay for PPAR Gamma Agonists (bDNA aP2 mRNA, preadipocytes)
Type: cell-based
cond: fold induction, unbracketed values; PPARγ standard FI = 70.3
measure.name: PPARγ FI

Here's what some known entries look like.
CCCN(C(=O)Nc1ccc(OC(F)(F)F)cc1)C1Cc2ccc(SC(C)(C)C(=O)O)cc2C1 (stereo not drawn)    0.37
CCCCCN(C(=O)Nc1ccc(-c2ccccc2)cc1)C1Cc2ccc(SC(C)(C)C(=O)O)cc2C1 (stereo not drawn)    11
CCCCCCN(C(=O)Nc1ccc(C(C)C)cc1)C1Cc2ccc(SC(C)(C)C(=O)O)cc2C1 (stereo not drawn)    1.2
CCCCCCN(C(=O)Nc1ccc(OC(F)(F)F)cc1)C1Cc2ccc(SC(C)(C)C(=O)O)cc2C1 (stereo not drawn)    0.3
CCN(C(=O)Nc1ccc(OC(F)(F)F)cc1)C1Cc2ccc(SC(C)(C)C(=O)O)cc2C1 (stereo not drawn)    0.24

[1] CCCCCN(C(=O)Nc1ccc(C(C)C)cc1)C1Cc2ccc(SC(C)(C)C(=O)O)cc2C1 (stereo not drawn)
[2] CC(C)(Sc1ccc2c(c1)CC(NC(=O)Nc1ccc(OC(F)(F)F)cc1)C2)C(=O)O (stereo not drawn)
[3] CC(C)CCN(C(=O)Nc1ccc(C(C)C)cc1)C1Cc2ccc(SC(C)(C)C(=O)O)cc2C1 (stereo not drawn)
Task for the reader: rank each entry by its PPARγ FI, from the minimum upward. Lab note: final answer is the ordered label list. 3, 2, 1

// data source = patent US20060094786A1
